assay: sensitizers of A549 cells to miR-34 induction, primary screen, imaging, A549 dox-inducible miR-34, nuclei and caspase counts (AID 1347080); settings: A549 miR-34 inducible, Hoechst nuclei count, 48 h; measured here: total cells without miR-34 induction; further: test concentration not given here
Measured metric: cell count

Compound | Assay result
NC1=NC(=O)N2CC12 (stereo unspecified) | 9090
CN1CCN(c2nc3ccccc3nc2Cl)CC1 | 8250
CCCN1CCc2cccc3c2[C@H]1Cc1ccc(O)c(O)c1-3 | 6850
CCCCC/C=C\C/C=C\C/C=C\C/C=C\CCCC(=O)Nc1ccc([N+](=O)[O-])cc1 | 5630
COc1ccc(N(C(=O)Oc2c(C)cccc2C)c2ccnc(Nc3ccc(N4CCN(C)CC4)cc3)n2)c(OC)c1 | 7250
C=CC(C)(C)c1cc2cc3c(cc2oc1=O)OC(C(C)(C)O)C3 (stereo unspecified) | 6170
OOCCC/C=C/c1ccccc1 | 5970
O=C1C=C2C=C[C@@H]3CC2(O1)[C@H]1CCCCN31 | 2810
CN(C(=O)Cc1ccc(Cl)c(Cl)c1)C(CN1CCCC1)c1cccc(OCC(=O)O)c1 (stereo unspecified) | 10200
CCN1C[C@]2(COC)CC[C@H](OC)[C@@]34C1[C@]1(OCO[C@@]15C[C@H](OC)[C@H]1C[C@@H]3[C@@H]5[C@H]1OC)[C@@H](O)[C@H]24 | 10200
CCCCC/C=C\C/C=C\C/C=C\C/C=C\CCCC(=O)NCc1ccoc1 | 5790
C=CCN1CC[C@]23c4c5ccc(O)c4O[C@H]2/C(=N/NC(=O)c2ccccc2)CC[C@@]3(O)[C@H]1C5 | 9170
C[C@]12CC[C@H](O)C[C@H]1CC[C@@H]1[C@@H]2C[C@@H](O)[C@]2(C)[C@@H](C3=CC(=O)OC3)CC[C@]12O | 772
O=C(NCCN1CCC2(CC1)C(=O)NCN2c1ccccc1)c1ccc2ccccc2c1 | 5940
c1ccc(CC(c2ccccc2)N2CCCCC2)cc1 (stereo unspecified) | 9860
CN1CCc2cccc(Cl)c2CC1 | 9620
CCCN(CCC)[C@@H]1CCc2ccc(O)cc2C1 | 9900
CC(=O)[O][Hg][c]1ccccc1 | 432
CCCCCCCC/C=C\CCCCCCCC(=O)OC[C@@H](COP(O)(O)=S)OC | 5460
COc1ccc(C(=O)OC2C[C@H]3CC[C@H](C2)N3C)cc1OC (stereo partly specified) | 10800
CCCCCCC(=O)CCCCCC/C=C/C[C@@H](O)[C@H](O)[C@@](N)(CO)C(=O)O | 5270

---

test: sensitizers of A549 cells to miR-34 induction, primary screen, imaging, A549 dox-inducible miR-34, nuclei and caspase counts (AID 1347080); conditions: A549 miR-34 inducible, Hoechst nuclei count, 48 h; measured here: relative caspase fold change +Dox/-Dox; further: test concentration not given here
Measured metric: fold change

Compound | Assay result
Oc1ccc(Cl)cc1 | 1.34
C=C1[C@@H](C)[C@H]2[C@H](Cc3ccccc3)NC(=O)C23[C@H](OC(C)=O)/C=C/[C@](C)(O)C(=O)[C@@H](C)C/C=C/[C@H]3[C@@H]1O (some centres undefined) | 0.464
O=C1CCO1 | 2.98
CC(C)N(CCNC(=O)CN1CCCC1=O)C(C)C | 0.862
CC(Cc1ccccc1)NCCC(c1ccccc1)c1ccccc1 (centres undefined) (tested in a mixture with another compound) | 1.52
CC1C=CC=CCCC=CC=CC=CC=CC(OC2OC(C)C(O)C(N)C2O)CC2O[C@@](O)(CC(O)C(O)CCC(O)CC(O)CC(O)CC(=O)OC(C)C(C)C1O)CC(O)C2C(=O)O (some centres undefined) | 1.01
c1cncc(C2CCCN2)c1 (centres undefined) | 2.18
COC(=O)CN1CN(c2ccccc2)C2(CCN(Cc3ccc4ccccc4c3)CC2)C1=O | 0.824
CC(=O)O[C@@]12CO[C@@H]1CC(O)[C@@]1(C)C(=O)C(O)C3=C(C)C(O)C[C@@](O)(C(OC(=O)c4ccccc4)[C@H]21)C3(C)C (some centres undefined) | 0.634
CP(=O)(O)C1=CCNCC1 | 1.49
CC[N+](CC)(CC)CC | 1.25
C[C@]12CC[C@H](O)C[C@H]1CC[C@@H]1[C@@H]2CC[C@]2(C)[C@@H](C3=CC(=O)OC3)CC[C@]12O | 1.54
c1cc(N2CCNCC2)c2cnccc2c1 | 0.639
CN(C)C1C(=O)C(C(N)=O)=C(O)[C@@]2(O)C(=O)C3=C(O)c4c(O)cccc4[C@@](C)(O)[C@H]3C(O)[C@@H]12 (some centres undefined) | 0.837
C[C@]12CCC(O)CC1=CCC1C2CC[C@]2(C)C(=O)CCC12 (some centres undefined) | 1.21
C=C(C)[C@H]1Cc2c(ccc3c2O[C@@H]2COc4cc(OC)c(OC)cc4[C@@H]2C3=O)O1 | 0.665
c1ccc2c(N3CCNCC3)cccc2c1 | 1.06
Cc1nc(N)sc1CCN | 1.01
COc1ccc(C(=O)c2c(C)n(CCN3CCOCC3)c3cc(I)ccc23)cc1 | 0.642
Ic1ccccc1CNC1C2CCN(CC2)C1C(c1ccccc1)c1ccccc1 (centres undefined) | 0.281
C1CCN(C2CCNCC2)CC1 | 0.5
CCCCC/C=C\C/C=C\C/C=C\C/C=C\CCCC(=O)NCCS(=O)(=O)O | 1.07
Clc1ccc(C2=CCCC3CCC2N3)cn1 (centres undefined) | 0.911
NC(CCCCCP(=O)(O)O)C(=O)O (centres undefined) | 2.45
CC(=O)Nc1cc([As](=O)(O)O)ccc1O | 2.55
C[C@]12CCC(=O)C=C1CC[C@@H]1[C@@H]2C(=O)C[C@]2(C)C(=O)CC[C@@H]12 | 0.858
CC1CCCC=C[C@@H]2CC(O)C[C@H]2C(O)C=CC(=O)O1 (some centres undefined) | 1.21
Cc1[nH]c2ccc(Cl)cc2c1C1=CCNCC1 | 1.4
O=C1NC(=O)c2c1c1c3ccccc3n3c1c1c2c2ccccc2n1C1CCC3O1 | 1.11
CN[C@@H]1CC2OC(C)([C@@H]1OC)n1c3ccccc3c3c4c(c5c6ccccc6n2c5c31)C(=O)NC4 (some centres undefined) | 0.918
C=C1[C@@H]2CC[C@H]3[C@]4(C)C[C@H](O[C@H]5O[C@H](CO)[C@@H](OS(=O)(=O)O)[C@H](OS(=O)(=O)O)[C@H]5OC(=O)CC(C)C)C[C@@H](C(=O)O)[C@H]4CC[C@]3(C2)[C@H]1O | 0.935
C[C@H]1CN(C2CCC(C#N)(c3ccc(F)cc3)CC2)CC[C@@]1(C(=O)O)c1ccccc1 (some centres undefined) | 1.09
CC1OC(O[C@H]2C[C@@H](O)[C@]3(CO)[C@H]4[C@H](O)C[C@]5(C)[C@@H](C6=CC(=O)OC6)CC[C@]5(O)[C@@H]4CC[C@]3(O)C2)C(O)C(O)C1O (some centres undefined) | 1.17
C[C@](O)(COc1ccc(C#N)cc1)C(=O)Nc1ccc(C#N)c(C(F)(F)F)c1 | 1.23
NC(=O)c1cc([N+](=O)[O-])cc([N+](=O)[O-])c1 | 2.03
O=[N+]([O-])c1ccc([As](=O)(O)O)cc1 | 1.5
C=CCN1C[C@@H](C)N([C@H](c2ccc(C(=O)N(CC)CC)cc2)c2cccc(OC)c2)C[C@@H]1C | 1.18
CCCCCCCCCCCCCC(=O)O[C@@H]1[C@@H](C)[C@@]2(O)[C@@H](C=C(CO)C[C@@]3(O)C(=O)C(C)=C[C@@H]23)C2C(C)(C)[C@@]21OC(C)=O (some centres undefined) | 1.62
C[C@]12CCC3C4CCC(=O)C=C4CCC3C1CCC2O (some centres undefined) | 1.48

// provenance: PubChem BioAssay
